Source listed as paper PMC12747378.

# Target System: T1, FtsZ core (residues 1-315) (Bacillus subtilis, UniProt P17865 1-315)
# T1 construct: FtsZ, Bacillus subtilis, globular core, residues 1-315; The printed purification is TALON resin with elution by AcTEV protease; also called FtsZ globular core; tailless core; source: E. coli BL21 Star (DE3), purified
# T1 sequence (looked up): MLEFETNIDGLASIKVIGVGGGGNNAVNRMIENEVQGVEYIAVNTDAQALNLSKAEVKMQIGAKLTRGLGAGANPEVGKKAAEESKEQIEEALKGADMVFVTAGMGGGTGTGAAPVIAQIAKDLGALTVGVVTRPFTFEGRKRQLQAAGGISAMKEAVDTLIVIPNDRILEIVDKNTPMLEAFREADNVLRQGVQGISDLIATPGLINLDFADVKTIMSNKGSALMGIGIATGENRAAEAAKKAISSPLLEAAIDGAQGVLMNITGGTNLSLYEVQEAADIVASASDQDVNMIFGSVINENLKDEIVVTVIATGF
# Procedure Summary: ITC; full-length FtsZ or FtsZ core (5 µM) in the cell, FtsZ tail or MinCN (50 µM) in the syringe; TKEG buffer (50 mM Tris pH 8, 50 mM KCl, 1 mM EDTA, 5% glycerol), 25°C; one-site model
# Details: both partners purified
Measurement Type: Kd

FtsZ tail (residues 316-382) S333A (domain or fragment, Bacillus subtilis, UniProt P17865 316-382, looked up, FtsZ, Bacillus subtilis, C-terminal tail, residues 316-382, S333A; pGEX-6P-3 with PreScission site; cleavage of GST not described; also called S333A tail variant; source: E. coli BL21 Star (DE3), purified) IEQEKDVTKPQRPSLNQAIKTHNQSVPKREPKREEPQQQNTVSRHTSQPADDTLDIPTFLRNRNKRG = > 2000 nM
FtsZ tail (residues 316-382) (domain or fragment, Bacillus subtilis, UniProt P17865 316-382, looked up, FtsZ, Bacillus subtilis, C-terminal tail, residues 316-382 (67 aa); Cloned in pGEX-6P-3 with a PreScission site; also called C-terminal tail; CTT; source: E. coli BL21 Star (DE3), purified; 15N-labelled in M9 minimal medium for NMR) IEQEKDVTKPQRPSLNQSIKTHNQSVPKREPKREEPQQQNTVSRHTSQPADDTLDIPTFLRNRNKRG = 228 nM
FtsZ tail (residues 316-382) K335A/H337A (domain or fragment, Bacillus subtilis, UniProt P17865 316-382, looked up, FtsZ, Bacillus subtilis, C-terminal tail, residues 316-382, K335A/H337A; pGEX-6P-3 with PreScission site; cleavage of GST not described; also called K335A/H337A tail double mutant; source: E. coli BL21 Star (DE3), purified) IEQEKDVTKPQRPSLNQSIATANQSVPKREPKREEPQQQNTVSRHTSQPADDTLDIPTFLRNRNKRG = > 2000 nM
FtsZ tail (residues 316-382) I334E (domain or fragment, Bacillus subtilis, UniProt P17865 316-382, looked up, FtsZ, Bacillus subtilis, C-terminal tail, residues 316-382, I334E; pGEX-6P-3 with PreScission site; cleavage of GST not described; also called I334E tail mutant; source: E. coli BL21 Star (DE3), purified) IEQEKDVTKPQRPSLNQSEKTHNQSVPKREPKREEPQQQNTVSRHTSQPADDTLDIPTFLRNRNKRG = > 2000 nM

Now, please, on to the next binder.
[in] Which Kd is listed for FtsZ tail (residues 316-382) S333E (domain or fragment, Bacillus subtilis, UniProt P17865 316-382, looked up, FtsZ, Bacillus subtilis, C-terminal tail, residues 316-382, S333E; pGEX-6P-3 with PreScission site; cleavage of GST not described; also called S333E tail variant; source: E. coli BL21 Star (DE3), purified) IEQEKDVTKPQRPSLNQEIKTHNQSVPKREPKREEPQQQNTVSRHTSQPADDTLDIPTFLRNRNKRG ?
[out] > 2000 nM
